Origin of measurements: patent US20260166139A1

- TARGET: T1, CTLA4 antigen (NCBI Gene ID: 1493) obtained by TEV protease cleavage of CTLA4-mFc (Homo sapiens (Human), UniProt P16410 37-161)
- T1 construct: also called the antigen CTLA4
- T1 sequence: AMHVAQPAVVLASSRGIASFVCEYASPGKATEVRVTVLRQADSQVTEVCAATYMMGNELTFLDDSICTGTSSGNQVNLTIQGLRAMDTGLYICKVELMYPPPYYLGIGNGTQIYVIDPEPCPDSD
- EXPERIMENTAL DETAILS: BLI (Fortebio), antibody on AR2G sensor, CTLA4 in solution
MEASUREMENT LABEL: koff (s⁻¹)
// note: answer is a bare numeric in s⁻¹

humanized antibody 8D2H3L3 (antibody, V domains shown) VH: EVQLVESGGGLVQPGGSLRLSCAASGFTFSDNWMNWVRQAPGKGLEWVAQIRNKPYNYETEYAASVKGRFTISRDDSKNSAYLQMNSLKTEDTAVYYCTAQFAYWGQGTLVTVSS VL: DIQMTQSPSSLSASVGDRVTITCRASENIYGGLNWYQQKPGKAPKLLIYGATSLASGVPSRFSGSGSGTDYTLTISSLQPEDFATYYCQNVLRSPFTFGSGTKLEIK    0.000327
humanized antibody 8D2H1L1 (antibody, V domains shown) VH: EVQLVESGGGLVQPGGSMRLSCAASGFTFSDNWMNWVRQAPGKGLEWLAQIRNKPYNYETYYSDSVKGRFTISRDDSKNSVYLQMNSLKTEDTGVYYCTAQFAYWGQGTLVTVSS VL: DIQMTQSPSSLSASVGDRVTITCRTSENIYGGLNWYQRKQGKSPKLLIYGATNLASGMSSRFSGSGSGTDYTLKISSLHPDDVATYYCQNVLRSPFTFGSGTKLEIK    0.000207

Please find the next binder below.
koff lookup needed for humanized antibody 8D2H2L15 (antibody, V domains shown) VH: EVQLVESGGGLVQPGGSMRLSCAASGFTFSDNWMNWVRQAPGKGLEWLAQIRNKPYNYETYYSASVKGRFTISRDDSKNSVYLQMNSLKTEDTGVYYCTAQFAYWGQGTLVTVSS VL: DIQMTQSPSSLSASVGDRVTITCRTSENIYGGLNWYQRKPGKSPKLLIYGATNLASGVSSRFSGSGSGTDYTLTISSLQPEDVATYYCQNVLSRHPGFGSGTKLEIK , thanks.
0.000465
